molecular target: FL-SMARCA2 (full-length human SMARCA2 isoform 1) (Homo sapiens); construct: FLAG tag (YKDDDDK) (C); made in house; host or cells: Sf21 insect cells (baculovirus, pFastBacI); assay: SMARCA2 ATPase activity assay (ADP-Glo, chicken mononucleosome substrate); type: biochemical; conditions: Table 3d.1; ATPase assay, enzyme 5 nM, ATP 250 uM, chicken mononucleosome 10 nM, 30 min preincubation; read-out: FL-SMARCA2 IC>50
Sequence (P51531 with tags, fused parts or gaps): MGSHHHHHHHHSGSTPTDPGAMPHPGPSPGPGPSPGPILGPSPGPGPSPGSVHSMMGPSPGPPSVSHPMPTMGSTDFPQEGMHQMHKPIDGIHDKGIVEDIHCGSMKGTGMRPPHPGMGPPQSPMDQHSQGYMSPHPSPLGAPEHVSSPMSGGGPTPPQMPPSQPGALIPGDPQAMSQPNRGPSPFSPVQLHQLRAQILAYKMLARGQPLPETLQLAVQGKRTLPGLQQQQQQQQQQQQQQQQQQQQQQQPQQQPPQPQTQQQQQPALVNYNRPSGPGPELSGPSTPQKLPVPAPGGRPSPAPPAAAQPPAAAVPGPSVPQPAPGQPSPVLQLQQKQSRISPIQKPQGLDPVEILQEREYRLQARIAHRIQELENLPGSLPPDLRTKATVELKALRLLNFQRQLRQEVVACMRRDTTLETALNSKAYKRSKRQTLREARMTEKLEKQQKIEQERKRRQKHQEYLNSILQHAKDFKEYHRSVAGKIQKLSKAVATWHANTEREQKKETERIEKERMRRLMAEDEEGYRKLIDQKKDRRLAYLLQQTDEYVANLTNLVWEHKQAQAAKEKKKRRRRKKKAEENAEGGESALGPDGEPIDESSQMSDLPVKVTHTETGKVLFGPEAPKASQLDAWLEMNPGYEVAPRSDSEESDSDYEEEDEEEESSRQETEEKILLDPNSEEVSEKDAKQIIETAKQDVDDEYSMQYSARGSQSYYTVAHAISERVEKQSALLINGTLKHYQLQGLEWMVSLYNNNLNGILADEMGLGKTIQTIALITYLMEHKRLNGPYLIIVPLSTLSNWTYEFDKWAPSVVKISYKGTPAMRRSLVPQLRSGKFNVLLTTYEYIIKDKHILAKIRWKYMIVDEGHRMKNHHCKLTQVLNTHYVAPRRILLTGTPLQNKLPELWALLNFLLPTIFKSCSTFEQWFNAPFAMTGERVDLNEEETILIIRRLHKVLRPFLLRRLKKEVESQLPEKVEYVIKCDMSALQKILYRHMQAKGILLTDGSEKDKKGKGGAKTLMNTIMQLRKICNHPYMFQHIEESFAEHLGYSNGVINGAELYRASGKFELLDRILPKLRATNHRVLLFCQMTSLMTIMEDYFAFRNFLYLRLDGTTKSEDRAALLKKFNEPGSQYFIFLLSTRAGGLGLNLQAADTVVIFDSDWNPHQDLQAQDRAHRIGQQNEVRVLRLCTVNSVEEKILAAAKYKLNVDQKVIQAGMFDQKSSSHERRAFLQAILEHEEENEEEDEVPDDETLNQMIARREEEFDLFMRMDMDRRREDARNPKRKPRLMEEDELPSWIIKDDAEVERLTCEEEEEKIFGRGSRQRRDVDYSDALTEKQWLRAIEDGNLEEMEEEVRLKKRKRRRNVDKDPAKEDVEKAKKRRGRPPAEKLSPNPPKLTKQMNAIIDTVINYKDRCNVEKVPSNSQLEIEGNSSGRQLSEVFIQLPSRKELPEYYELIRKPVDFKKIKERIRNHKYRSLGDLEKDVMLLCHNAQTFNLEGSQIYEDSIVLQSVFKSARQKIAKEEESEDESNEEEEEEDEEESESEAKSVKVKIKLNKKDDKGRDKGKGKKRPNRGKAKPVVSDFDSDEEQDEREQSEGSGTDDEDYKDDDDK
Could you mark each record TRUE if its IC50 falls strictly under 200 nM, and FALSE if it equals or exceeds it?

Q: State whether 200 nM exceeds IC50 recorded for CCn1cc(NC(=O)c2cc(Cl)c(Cl)s2)ncc1=O [Compound 18d] .
A: FALSE

Q: # TODO verify IC50 < 200 nM strictly for this compound: CC(C)(F)c1sc(C(=O)Nc2cc(F)c(=O)n(CC(F)F)c2)cc1C#N [Compound 84d]
A: FALSE

Q: In the record for O=C(Nc1cc(F)c(=O)n(CC(F)F)c1)c1cc(C#C[C@H]2C[C@@H](CO)C2)c(Cl)s1 [Compound 134d] , is IC50 less than 200 nM?
A: TRUE

Q: Could you please tell me whether IC50 recorded for O=C(Nc1cc(F)c(=O)n(CC(F)F)c1)c1cc(Cl)c(C#Cc2cccnc2)s1 [Compound 53d] is less than 200 nM?
A: FALSE

Q: Given O=C(Nc1cc(F)c(=O)n(CC(F)F)c1)c1cc(C#CC2CCCN2)c(Cl)s1 (centres unmarked) [Compound 107d] , is recorded IC50 strictly lower than 200 nM?
A: FALSE

Q: hey, is IC50 for O=C1Cc2ncc(C#Cc3cc(C(=O)NC4=NC(CC(F)F)C(=O)C(F)=C4)sc3Cl)cc2N1 (centres unmarked) [Compound 58d] lower than 200 nM or not?
A: TRUE

Q: Consider O=C(Nc1cc(F)c(=O)n(CC(F)F)c1)c1cc(C#Cc2ccc3ccnn3c2)c(Cl)s1 [Compound 122d] . Does its IC50 lie strictly below 200 nM?
A: FALSE

Q: Does the reported IC50 of the following compound sit strictly below 200 nM? N#Cc1cc(C(=O)Nc2cc(OC(F)(F)F)c(=O)n(CC(F)F)c2)sc1C(F)(F)F [Compound 103d]
A: FALSE

Q: # check: IC50 < 200 nM for CN(C)CC#Cc1cc(NC(=O)c2cc(F)c(Cl)s2)cn(CC(F)F)c1=O [Compound 45d]
A: FALSE

Q: Just wondering, is IC50 of N#Cc1cc(NC(=O)c2cc(Cl)c(C(F)(F)F)s2)cn(CC(F)F)c1=O [Compound 86d] below 200 nM?
A: TRUE

Q: Identify whether the compound Cc1cc(NC(=O)c2cc(Cl)c(C(F)(F)F)s2)cn(CC(F)F)c1=O [Compound 82d] records IC50 below 200 nM.
A: FALSE

Q: Answer whether the compound CC(=O)NC1COCC(C#Cc2cc(C(=O)Nc3cc(F)c(=O)n(CC(F)F)c3)sc2Cl)C1 (centres unmarked) [Compound 57d] has IC50 strictly less than 200 nM
A: TRUE

Q: # TODO verify IC50 < 200 nM strictly for this compound: CCCn1nc(NC(=O)c2cc(Cl)c(Cl)s2)ccc1=O [Compound 22d]
A: FALSE

Q: Given the entry O=C(Nc1cc(F)c(=O)n(CC(F)F)c1)c1cc(C(O)C(F)(F)F)c(Cl)s1 (centres unmarked) [Compound 47d] , would its reported IC50 be below 200 nM?
A: FALSE

Q: Determine if N#Cc1cc(C(=O)Nc2cc(F)c(=O)n(CC(F)F)c2)sc1C(F)(F)Cl [Compound 78d] shows IC50 strictly lower than 200 nM.
A: TRUE

Q: Take the compound O=C(Nc1cc(F)c(=O)n(CC(F)F)c1)c1cc(C#C[C@H]2C[C@H](CO)C2)c(Cl)s1 [Compound 133d] and say whether its IC50 is less than 200 nM.
A: TRUE
